Please go through the items and note down their activity change, negative = inhibition.
Molecular target: Acetylcholinesterase (Homo sapiens)
Assay: Acetylcholinesterase (AChE) small molecule antagonists: fluorescence cell-based qHTS assay (AID 1347398); note: % is set by controls: 0 for no effect and ±100 for the full control effect; nearly all actives have a fitted effect of over 50% in size
Conditions: SH-SY5Y cells; series mostly up to 115 µM
Excerpt: National Center for Advancing Translational Sciences [NCATS] Division of Preclinical Innovation [DPI] U.S. Environmental Protection Agency [EPA] National Institutes of Environmental Health Sciences [NIEHS] National Toxicology Program [NTP] […] A homogenous cell-based assay using Amplitetrade mark Fluorimetric Acetylcholinesterase Assay Kit *Green Fluorescence* (AAT Bioquest, Sunnyvale, CA) was used to evaluate the chemicals in the Tox21 10K library that inhibit AChE activity. […]
Inconclusive results are not listed. Active and inactive are the calls of the source. Calls come from the whole dose curve.

Exercise: // returns reported activity change, negative = inhibition for input CCN[C@@H]1C[C@H](N)[C@@H](OC2OC(CN)=CCC2N)[C@H](O)[C@H]1O[C@H]1OC[C@](C)(O)[C@H](NC)[C@H]1O (stereo partly drawn)
Solution: 7.61% [at 0.439 µM] (inactive)

Exercise: Likewise for Oc1cn2c(n1)Nc1ccc(Cl)c(Cl)c1C2 ?
Solution: -3.43% [at 23.8 µM] (inactive)

Exercise: Likewise for CCn1cc(C(=O)O)c(=O)c2cc(F)c(N3CCN(C)CC3)cc21 ?
Solution: 2.98% [at 23.8 µM] (inactive)

Exercise: Likewise for CCc1nccnc1CC ?
Solution: 3.3% [at 23.8 µM] (inactive)

Exercise: Likewise for N[C@@H](C(=O)N[C@@H]1C(=O)N2C(C(=O)O)=C(Cl)CS[C@H]12)c1ccccc1 ?
Solution: 7.33% [at 10.5 µM] (inactive)

Exercise: Likewise for C[Si](C)=O ?
Solution: 0.274% [at 10.5 µM] (inactive)

Exercise: Likewise for O=S(O)O ?
Solution: 0.464% [at 23.8 µM] (inactive)

Exercise: Likewise for Cc1[nH]c(C)c(Cl)c(=O)c1Cl ?
Solution: -0.55% [at 23.8 µM] (inactive)

Exercise: Likewise for O=C(O)CN(CCOCCOCCN(CC(=O)O)CC(=O)O)CC(=O)O ?
Solution: 2.07% [at 0.439 µM] (inactive)

Exercise: Likewise for O=C(O)C[C@H](O)C[C@H](O)/C=C/c1c(C2CC2)nc2ccccc2c1-c1ccc(F)cc1 ?
Solution: 8.09% [at 23.8 µM] (inactive)

Exercise: Likewise for CCC(=O)CC(C)CC (stereo not drawn) ?
Solution: 1.06% [at 0.439 µM] (inactive)

Exercise: Likewise for c1cc2ccc3ccc4ccc5cccc6c(c1)c2c3c4c56 ?
Solution: 9.19% [at 3.98 µM] (inactive)

Exercise: Likewise for CCN(CCO)CCCC(C)Nc1ccnc2cc(Cl)ccc12 (stereo not drawn) ?
Solution: -7.12% [at 10.5 µM] (inactive)

Exercise: Likewise for O=C(O)CNCC(=O)O ?
Solution: -0.972% [at 10.5 µM] (inactive)

Exercise: Likewise for N[C@@H](COP(=O)(O)O)C(=O)O ?
Solution: 4.21% [at 23.8 µM] (inactive)

Exercise: Likewise for O=c1oc2c(O)c(O)cc3c(=O)oc4c(O)c(O)cc1c4c23 ?
Solution: 4.39% [at 23.8 µM] (inactive)

Exercise: Likewise for CCCCCCCCCCOc1cc2c(=O)c(C(=O)OCC)c[nH]c2cc1OCC ?
Solution: -0.416% [at 10.5 µM] (inactive)

Exercise: Likewise for FC(F)(F)C(F)(F)C(F)(F)C(F)(F)C(F)(F)C(F)(F)C(F)(F)C(F)(F)C(F)(F)C(F)(F)F ?
Solution: 1.44% [at 10.5 µM] (inactive)

Exercise: Likewise for CN(C)C(=O)NC1(c2ccccc2)CCN(CCC[C@]2(c3ccc(Cl)c(Cl)c3)CCCN(C(=O)c3ccccc3)C2)CC1 ?
Solution: -16% [at 23.8 µM] (inactive)

Exercise: Likewise for CCn1cc(C(=O)O)c(=O)c2cnc(N3CCCC3)nc21 ?
Solution: 15.4% [at 10.5 µM] (inactive)

Exercise: Likewise for NC[C@H]1O[C@H](O[C@H]2[C@H](O)[C@@H](O[C@H]3O[C@H](CO)[C@@H](O)[C@H](N)[C@H]3O)[C@H](N)C[C@@H]2N)[C@H](N)[C@@H](O)[C@@H]1O ?
Solution: 4.18% [at 23.8 µM] (inactive)

Exercise: Likewise for CC1=CC(=C(c2ccc(N)cc2)c2ccc(N)cc2)C=CC1=N ?
Solution: -4.07% [at 10.5 µM] (inactive)

Exercise: Likewise for O=c1[nH]c(=O)c2[nH]c(=O)[nH]c2[nH]1 ?
Solution: 6.44% [at 10.5 µM] (inactive)

# credit: PubChem BioAssay (Tox21)
